Biological target: T1, human C5 R885H-mmh (human, UniProt P01031 19-1676)
T1 construct: also called human C5 variant R885H
Experiment: SPR, mAb captured via anti-hFc, 37C
pKd: −log10 of the molar value.
Property Measured: pKd

# Binder, Measured
data = [
    ("H4H12167P (antibody, human IgG4, V domains shown, Human IgG4 Fc with S108P hinge mutation (H4H)) VH: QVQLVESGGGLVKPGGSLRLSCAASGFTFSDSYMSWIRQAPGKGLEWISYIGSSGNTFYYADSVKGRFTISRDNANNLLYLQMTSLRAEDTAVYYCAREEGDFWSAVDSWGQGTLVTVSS VL: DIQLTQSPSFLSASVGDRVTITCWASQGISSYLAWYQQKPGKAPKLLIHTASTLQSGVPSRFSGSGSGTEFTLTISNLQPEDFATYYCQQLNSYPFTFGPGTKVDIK", 8.54),
]

The measured values listed here are drawn from patent US20170355757A1.
